B1: tRNA (parent)
chain: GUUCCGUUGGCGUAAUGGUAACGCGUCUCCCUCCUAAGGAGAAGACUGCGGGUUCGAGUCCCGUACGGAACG

- Variants of: B1
- assay: yeast fitness relative to wild type (ratio to wild type); higher = fitter; tRNA-Arg(CCU), competitive growth, 37 C, YPD
Variants at the floor of the assay were thinned out.
Consider the following variants; for each one, report its yeast fitness.

Illustrative cases are given below, each with its answer.
variant_descriptor: G6A A14G C22G U35G A40C A70G
result: ≤ 0.5
--
variant_descriptor: A14C C24U G51C U54A
result: ≤ 0.5
--
variant_descriptor: G10C C11U G67A
result: ≤ 0.5
--
variant_descriptor: U16C C34G A65U G67U
result: ≤ 0.5
--
variant_descriptor: C24U A57C C61U
result: ≤ 0.5
--
variant_descriptor: G12A U47C C49A A57U
result: 0.53
--
variant_descriptor: G10A A36C C62G
result: ≤ 0.5
--
variant_descriptor: C22A A36G
result: 0.8

Each variant below has a recorded value; state its yeast fitness.
1. A21C A45G
2. C11G G12A C27U A43G
3. G23U A43U C55G
4. G17C C22G G52A
5. C22U G52A C60U
6. A40U C60A

1: 0.918; 2: ≤ 0.5; 3: ≤ 0.5; 4: ≤ 0.5; 5: 0.598; 6: 0.604

Each variant below has a recorded value; state its yeast fitness.
1. C27U A43G C46G A69C
2. C5G A21C U54A A57G

1. ≤ 0.5
2. ≤ 0.5

Attribution: the RNAGym collection of RNA variant scans (doi:10.1126/science.aae0568)
